Recorded values, source patent US4256729A.

Experiment: in vivo
Conditions: mouse, in vivo, iv
Method: The following pharmacological studies were conducted on N,N'-bis-(2,3-dihydroxypropyl)-2,4,6-triiodo-5-(2-keto-L-gulonamido)isophthalamide prepared by Method II (PRODUCT). A solution of the PRODUCT was injected into the lateral tail vein of young adult male and female Swiss mice at a rate of 1 ml/min.
ATTRIBUTE MEASURED: LD50 at 168 h (mg/kg)
Answer in mg/kg, number only, no unit symbol.

Problem: Sample O=C(Nc1c(I)c(C(=O)NCC(O)CO)c(I)c(C(=O)NCC(O)CO)c1I)C(=O)[C@@H](O)[C@H](O)[C@@H](O)CO (stereo partly shown) — what was its LD50 at 168 h?
Solution: 44700
